Where do the numbers come from? From ChEMBL document CHEMBL1201862.

Tested on: HOP-92
Assay: NCI tumour cell line growth inhibition, 48 h
Where a name gives a salt, the structure may show the parent alone. The source made the active and inactive calls. Rule as the data show it: active = GI50 up to about 1.1 µM and inactive = higher.
Possible outcomes: label 1 for active, label 0 for inactive

>>> cat("CCCC(Sc1nc(N)nc2nc[nH]c12)C(=O)O (stereo not drawn)")
"label 0"
>>> cat("Cc1ccc(NC(=O)OCC(COc2ccc(Cl)cc2Cl)OC(=O)Nc2ccc(C)cc2)cc1 (stereo not drawn)")
"label 0"
>>> cat("COc1ccc(-c2csc(Cc3nc4c(Br)cc(Br)cc4c(=O)n3-c3ccc(OC)cc3)n2)cc1")
"label 0"
>>> cat("CC(=O)NNc1nc(C)c(C(=O)NNC(=O)C(=O)Nc2c(C)cccc2C)s1")
"label 0"
>>> cat("Cc1ccc(C2COc3cc(O)c(O)cc3C2)cc1 (stereo not drawn)")
"label 0"
>>> cat("O=C1c2ccccc2C(=O)c2c(O)c(NCCCNCCO)cc(O)c21")
"label 0"
>>> cat("O=C1C(CN2CCOCC2)CCCC1CN1CCOCC1 (stereo not drawn)")
"label 1"
>>> cat("OCC(O)C1OC2CC1Nc1ccccc1N2 (stereo not drawn)")
"label 0"
>>> cat("CCOC1=C2N=C(C(CC)c3ccc(F)cc3)N=C2C(=O)c2ccccc21 (stereo not drawn)")
"label 0"
>>> cat("O=C(Nc1ccccc1-c1nn(C(=S)Nc2ccccc2)c(=S)n(C(=S)Nc2ccccc2)c1=O)C(F)(F)F")
"label 0"
>>> cat("CN1CCN(C2CC(=O)c3c(Cl)sc(Cl)c32)CC1 (stereo not drawn)")
"label 0"
>>> cat("COc1cc(C2SC(=N)Nc3c2c(C)nn3C(=O)c2ccc(Cl)cc2)ccc1O (stereo not drawn)")
"label 0"
>>> cat("COc1ccc(Cc2n[nH]c(Nc3ccc(Br)cc3)nc2=O)cc1OC")
"label 0"
>>> cat("NCCCc1ccc2oc3ccccc3c2c1")
"label 0"
>>> cat("[N-]=[N+]=C(C(=O)OCC#CCOC(=O)C(=[N+]=[N-])S(=O)(=O)c1ccccc1)S(=O)(=O)c1ccccc1")
"label 0"
>>> cat("COc1ccc(/C=C/c2cc(OC)c(OC)c(OC)c2)cc1OC")
"label 0"
>>> cat("COc1cc(OC)c2c(O)c3c(cc2c1)CC(C)(C)CC3=O")
"label 0"
>>> cat("N=C(N)SCCON1C(=O)c2ccccc2C1=O")
"label 0"
>>> cat("Cc1ccc(/C=N\\NC(=O)c2ccncc2)s1")
"label 0"
>>> cat("CN(C)c1ccc(/C=c2/c3ccccc3n3c2cc(/C=C/c2ccccc2)[n+]3C)cc1")
"label 1"
>>> cat("O=S(=O)(/C=C/C=C/[S+]([O-])c1ccccc1)c1ccccc1 (stereo not drawn)")
"label 0"
>>> cat("Cc1ccc(C(=O)CC(O)(C(F)(F)F)C(F)(F)F)cc1[N+](=O)[O-]")
"label 0"
>>> cat("CCOC(=O)c1cc(-n2nnc3ccccc32)cn1C")
"label 0"
>>> cat("CN(C(=O)C12C3C4C5C3C1(C(=O)C13C6C7C8C6C1C8C73)C5C42)C(C)(C)C (stereo not drawn)")
"label 0"
>>> cat("Cc1ccnc2[nH]c3ccccc3c(=O)c12")
"label 0"
>>> cat("CCCCN(CCCC)C(=Nc1ccccc1)N(CCCC)CCCC")
"label 0"
>>> cat("N#CC1=C(S)N(C2OC(CO)C(O)C(O)C2O)C(c2ccccc2)=CC1c1ccco1 (stereo not drawn)")
"label 0"
>>> cat("Clc1ccc(C2=Nc3ccccc3SC(c3ccc(Cl)c(Cl)c3)C2)c(Cl)c1 (stereo not drawn)")
"label 0"
>>> cat("O=C1CSC(=S)N1c1ccco1")
"label 0"
>>> cat("C=C1CC(C)(c2cccc(Nc3nc4ccccc4c4occc34)c2)OC1=O (stereo not drawn)")
"label 0"
>>> cat("CCOC(=O)/C(C)=C(/O)C(=O)OCC")
"label 0"
>>> cat("CC(=O)OCC1OC(n2c3c(cc(C#N)c2=O)CCCCCC3)C(OC(C)=O)C(OC(C)=O)C1OC(C)=O (stereo not drawn)")
"label 0"
>>> cat("O=c1c(-c2ccccc2Cl)coc2cc(F)ccc12")
"label 0"
>>> cat("C[N+](C)(C)CCCCCc1c2nc(c(CCCCC[N+](C)(C)C)c3ccc([nH]3)c(CCCCC[N+](C)(C)C)c3nc(c(CCCCC[N+](C)(C)C)c4ccc1[nH]4)C=C3)C=C2")
"label 0"
>>> cat("CCOc1ccc(-n2c(=O)c3nn4c(=O)n(-c5ccc(OCC)cc5)c(=O)c4nn3c2=O)cc1")
"label 0"
>>> cat("COC(=O)/C=C/c1c(CC=C(C)C)ncn1C")
"label 0"
>>> cat("CCOP(=O)(OCC)/C(C#N)=C/c1cccn1C(C)C")
"label 0"
>>> cat("C/C(=N\\NC(=O)c1ccncc1)c1ccccc1F")
"label 0"
>>> cat("CCc1cccc(NC(=O)c2cc(/C=C/c3ccccc3)nc(S)n2)c1")
"label 0"
>>> cat("O=C1CC(O)C=C1Nc1ccc(Cl)cc1 (stereo not drawn)")
"label 0"
>>> cat("N[C@@H](Cc1ccc(N(CCCl)CCCl)cc1)C(=O)O [MELPHALAN HYDROCHLORIDE]")
"label 0"
>>> cat("COc1cc2c(cc1OCCCC(=O)Nc1cc(C(=O)NCCCN(C)C)n(C)n1)N=CC1CCCN1C2=O (stereo not drawn)")
"label 0"
>>> cat("O=C(N[C@@H](c1ccccc1)[C@@H](O)C(=O)OCc1ccc([N+](=O)[O-])cc1)c1ccccc1")
"label 0"
